These data points were gathered from PubChem BioAssay.

We begin with a simple list: items and their reported z-score.
# Measurement description: MM1S cell viability effects, profiling panel, calcein-AM fluorescence, 48 h, basal (AID 1165);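 note: viability of MM1S multiple myeloma cells under basal unstimulated conditions; test concentration not given here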
# Condition parameters: higher = more signal
Reported metric: z-score

                            compound_smiles  recorded_value
0  CC(C)C[C@@H]1NC(=O)[C@H]2C[C@@H](C(=O)NCCCCCCNC(=O)CS)[C@@H](c3ccc(O)cc3)N2C1=O          -0.397
1  COC(=O)[C@@]1(Cc2ccc(F)cc2)[C@H]2c3cc(C(=O)N(C)C)n(CCn4cc([N+](=O)[O-])nc4C)c3C[C@H]2CN1C(=O)c1ccccc1          -0.737
2    CCCCC(=C=CC[C@@H](O)c1cccc(OCCO)c1)CCO           0.859
3  CC(C)CNC(=O)[C@@H]1c2ccccc2C(=O)N(C2Cc3ccccc3C2)[C@H]1c1ccc(CO)cc1          0.0933
